The entries below are paired with their reported hERG.
# TESTED SYSTEM: UniProt:Q12809
# Sequence (Q12809 whole entry): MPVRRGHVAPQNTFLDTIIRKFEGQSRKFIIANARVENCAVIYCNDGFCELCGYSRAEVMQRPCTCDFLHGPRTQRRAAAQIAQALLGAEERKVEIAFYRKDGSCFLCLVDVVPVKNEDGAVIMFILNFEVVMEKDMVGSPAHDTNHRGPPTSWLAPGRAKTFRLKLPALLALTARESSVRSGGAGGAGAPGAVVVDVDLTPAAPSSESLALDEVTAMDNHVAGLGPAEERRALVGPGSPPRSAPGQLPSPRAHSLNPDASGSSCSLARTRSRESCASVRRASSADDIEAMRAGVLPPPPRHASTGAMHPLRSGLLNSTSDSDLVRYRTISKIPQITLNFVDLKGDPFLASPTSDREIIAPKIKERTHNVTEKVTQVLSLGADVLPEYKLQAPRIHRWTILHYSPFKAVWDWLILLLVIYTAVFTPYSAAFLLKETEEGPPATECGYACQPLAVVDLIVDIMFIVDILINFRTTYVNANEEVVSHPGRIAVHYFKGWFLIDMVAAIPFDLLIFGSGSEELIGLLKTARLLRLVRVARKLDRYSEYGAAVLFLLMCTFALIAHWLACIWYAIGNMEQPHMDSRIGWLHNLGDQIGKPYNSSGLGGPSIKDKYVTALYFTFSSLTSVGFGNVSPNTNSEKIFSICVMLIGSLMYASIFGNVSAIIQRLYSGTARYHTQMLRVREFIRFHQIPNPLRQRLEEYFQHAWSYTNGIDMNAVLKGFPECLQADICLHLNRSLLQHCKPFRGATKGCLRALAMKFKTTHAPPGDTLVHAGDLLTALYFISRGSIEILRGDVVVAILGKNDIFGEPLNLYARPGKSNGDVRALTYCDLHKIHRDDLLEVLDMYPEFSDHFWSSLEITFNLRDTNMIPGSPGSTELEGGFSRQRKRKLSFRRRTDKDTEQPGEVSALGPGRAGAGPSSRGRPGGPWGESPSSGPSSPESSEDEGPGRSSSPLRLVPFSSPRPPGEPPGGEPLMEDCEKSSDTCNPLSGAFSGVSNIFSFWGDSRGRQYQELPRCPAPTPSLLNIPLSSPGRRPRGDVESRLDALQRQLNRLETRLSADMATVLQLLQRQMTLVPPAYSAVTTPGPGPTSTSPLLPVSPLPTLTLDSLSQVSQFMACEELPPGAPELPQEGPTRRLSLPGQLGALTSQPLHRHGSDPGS
# ASSAY METHOD TEXT: hERG activity (process of Bridgland-Taylor et al.)
# Format: cell-based
MEASURE NAME: hERG

COMPOUND	RECORDED MEASUREMENT
Cc1cc(-c2nc(CN3C[C@@H]4C[C@H]3CN4)no2)cc2c1C(=O)N(Cc1ccc(Cl)cc1)C2 [Example 2]	33.0 µM
Cc1cc(-c2nc(CN3CCNC[C@@H]3C)no2)cc2c1C(=O)N(Cc1ccc(Cl)cc1)C2 [Example 5]	12.6 µM
Cc1cc(-c2nc(CN3CCNCC3)no2)cc2c1C(=O)N(Cc1ccc(Cl)cc1)C2 [Example 4]	25.0 µM
Cc1cc(-c2nc(CN3CCNCC3)no2)cc2c1C(=O)N(Cc1ccc(OC(F)(F)F)cc1)C2 [Example 1]	11.0 µM
Cc1cc(-c2nc(CN3CCNC(C)C3)no2)cc2c1C(=O)N(Cc1ccc(Cl)cc1)C2 (stereo not drawn) [Example 3]	12.0 µM
Cc1cc(-c2nc(CN3CCNC[C@H]3C)no2)cc2c1C(=O)N(Cc1ccc(Cl)cc1)C2 [Example 6]	18.7 µM

###

# TESTED SYSTEM: human mGluR2 (Homo sapiens)
# Construct: membranes
# Sequence (Q14416 19-872): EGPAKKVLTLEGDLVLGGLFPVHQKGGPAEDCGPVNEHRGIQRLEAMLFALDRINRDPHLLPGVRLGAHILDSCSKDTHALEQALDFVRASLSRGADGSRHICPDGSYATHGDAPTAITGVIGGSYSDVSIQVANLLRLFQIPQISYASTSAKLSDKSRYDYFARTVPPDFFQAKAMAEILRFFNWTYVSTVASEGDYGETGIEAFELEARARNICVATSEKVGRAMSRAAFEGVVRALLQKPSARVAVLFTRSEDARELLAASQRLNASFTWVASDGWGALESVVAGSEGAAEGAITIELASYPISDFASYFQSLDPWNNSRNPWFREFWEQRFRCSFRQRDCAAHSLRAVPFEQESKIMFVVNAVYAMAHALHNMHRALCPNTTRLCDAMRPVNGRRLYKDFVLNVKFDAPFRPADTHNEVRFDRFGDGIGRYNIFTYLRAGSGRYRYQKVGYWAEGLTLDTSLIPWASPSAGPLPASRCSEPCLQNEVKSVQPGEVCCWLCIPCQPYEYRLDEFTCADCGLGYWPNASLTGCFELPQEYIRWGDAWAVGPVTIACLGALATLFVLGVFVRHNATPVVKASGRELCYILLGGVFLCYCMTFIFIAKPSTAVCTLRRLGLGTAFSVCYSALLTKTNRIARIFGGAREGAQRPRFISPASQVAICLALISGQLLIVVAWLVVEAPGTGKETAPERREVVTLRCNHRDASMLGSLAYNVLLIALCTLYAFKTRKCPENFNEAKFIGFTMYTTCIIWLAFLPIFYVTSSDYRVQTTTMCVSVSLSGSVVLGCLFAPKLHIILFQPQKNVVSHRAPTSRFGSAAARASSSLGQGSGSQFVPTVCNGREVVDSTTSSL
# ASSAY METHOD TEXT: [35S]-GTPγS binding assay, allosteric activator activity with CHO cell membranes
# TEST SETTINGS: membranes of CHO cells expressing human mGluR2, 1 μM glutamate; read-out: GTPgS EC50

COMPOUND	EC50 (nM)
Cc1cc(-c2nc(CN3CCNC(C)C3)no2)cc2c1C(=O)N(Cc1ccc(Cl)cc1)C2 (centres unmarked)	154
Cc1cc(-c2nc(CN3CCNC[C@H]3C)no2)cc2c1C(=O)N(Cc1ccc(Cl)cc1)C2	317
Cc1cc(-c2nc(CN3CCNCC3)no2)cc2c1C(=O)N(Cc1ccc(Cl)cc1)C2	378
Cc1cc(-c2nc(CN3CCNC[C@@H]3C)no2)cc2c1C(=O)N(Cc1ccc(Cl)cc1)C2	352
Cc1cc(-c2nc(CN3C[C@@H]4C[C@H]3CN4)no2)cc2c1C(=O)N(Cc1ccc(Cl)cc1)C2	206

###

# ASSAY METHOD TEXT: Aqueous solubility in pH 7.4 phosphate buffer
# Assay type: physicochemical
# TEST SETTINGS: thermodynamic from solid, equilibration 24 h at 25° C.
The entries below are paired with their reported solubility at 24 h.

COMPOUND	VALUE UNIT	QUAL	solubility at 24 h
Cc1cc(-c2nc(CN3CCNC[C@@H]3C)no2)cc2c1C(=O)N(Cc1ccc(Cl)cc1)C2	µM	=	384
Cc1cc(-c2nc(CN3CCNCC3)no2)cc2c1C(=O)N(Cc1ccc(OC(F)(F)F)cc1)C2	µM	=	44.9
Cc1cc(-c2nc(CN3C[C@@H]4C[C@H]3CN4)no2)cc2c1C(=O)N(Cc1ccc(Cl)cc1)C2	µM	=	336
Cc1cc(-c2nc(CN3CCNCC3)no2)cc2c1C(=O)N(Cc1ccc(Cl)cc1)C2	µM	>	500
Cc1cc(-c2nc(CN3CCNC(C)C3)no2)cc2c1C(=O)N(Cc1ccc(Cl)cc1)C2 (stereo not drawn)	µM	=	396
Cc1cc(-c2nc(CN3CCNC[C@H]3C)no2)cc2c1C(=O)N(Cc1ccc(Cl)cc1)C2	µM	>	500
